pIC50 values for the compounds below.
target.or.system: κ opioid receptor (Homo sapiens, UniProt P41145)
Sequence (P41145 whole entry): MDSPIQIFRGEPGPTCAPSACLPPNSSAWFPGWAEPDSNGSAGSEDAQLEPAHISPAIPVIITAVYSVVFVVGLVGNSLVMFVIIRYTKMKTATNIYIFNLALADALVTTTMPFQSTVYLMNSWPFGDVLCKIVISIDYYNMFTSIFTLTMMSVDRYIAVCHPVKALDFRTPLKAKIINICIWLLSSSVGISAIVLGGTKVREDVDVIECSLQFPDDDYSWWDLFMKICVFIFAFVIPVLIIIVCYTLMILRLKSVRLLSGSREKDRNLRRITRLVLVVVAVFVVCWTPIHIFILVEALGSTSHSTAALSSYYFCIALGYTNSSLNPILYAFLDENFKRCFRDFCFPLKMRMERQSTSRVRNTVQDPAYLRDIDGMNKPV
method.description: FLIPR intracellular calcium signal test, HEK293-κ cells
condition.description: IC50 (inhibition) test against EC80 of positive agonist, read-out: Kapp receptor IC50
pIC50: −log10 of the molar value. Counter-ions that a name gives are not always drawn.
value.kind: pIC50

compound	result
CC12CCCCCC(Cc3cc(Cl)c(O)cc31)C2N (centres unmarked) [Hydrochloride of Compound 16]	5.00 to 6.00
CC12CCCCC(Cc3c(F)cc(O)cc31)C2N (single isomer, unassigned) [Compound 32]	6.00 to 7.00
CC12CCOCCC(Cc3ccc(O)cc31)C2N (centres unmarked)	5.00 to 6.00
CC12CCCCCC(Cc3c(F)cc(O)cc31)C2N (centres unmarked)	5.00 to 6.00
C[C@]12CCOCC[C@H](Cc3ccc(O)cc31)[C@H]2N	< 4.00
